- Tested on: ATP;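 also: ATP exposure 15 min at 22 °C before imaging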
- TEST NAME: switch fluorescence ratio, 500 uM ATP over buffer (Cy3 cluster intensity, sum of 5 cycles each) (fold (ratio)); higher = stronger signal-on switching upon ATP binding; sequences stand for … in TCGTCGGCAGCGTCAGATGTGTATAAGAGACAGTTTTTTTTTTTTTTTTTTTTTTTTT…TC
- CONDITION DETAILS: aptamer strand: ATP DNA aptamer (quencher-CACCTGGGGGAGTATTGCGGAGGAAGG + anchor), 100 nM annealed; ATP concentration: 500 uM
Hi there, I'd appreciate the recorded switch fluorescence ratio for every entry that follows.
Answers are plain numbers.

Recorded switch fluorescence ratio, per entry:
ITEM SEQUENCE	TEST SYSTEM	OBS VALUE
CGGTGGTCGC	ATP	0.984
TTTTGCACGG	ATP	1.04
GCTTAAAAAT	ATP	0.986
GGGCCCGGGA	ATP	0.986
TAAAAATCAT	ATP	1.01

Count: 5. Required value per item: switch fluorescence ratio.
1. TACCACGTTG
2. TTTATTCGGC
3. TAAGGGGCCA
4. ATATAAAACG
5. GGTTGCGATC

Result string:
[1, 1.02, 1.02, 0.983, 1.08]

Count: 2. Required value per item: switch fluorescence ratio.
1. TAGCTTGGTG
2. AAGTTAAGGG

Result string:
1: 1.04; 2: 0.995
